The measured values listed here are drawn from PubChem BioAssay AID1508600.

- Protocol description: Components of the Cytosolic LPS Sensing Pathway: Gene Identification via Genome-wide siRNA Screen;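 further: robust z of the log signal after scaling to non-targeting control siRNA wells of the plate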
- Study conditions: RAW264.7 macrophages, IL-1a HTRF, actives lie on both sides, screened at 100 nM (by protocol), cells primed 5 h with Pam3CSK4 first
Among all 53,000 sequences or so, about 3,700 (7%) were called active. The entries come from a sample that favours actives as a whole.
Recorded metric: z-score
Format: numeric value only, no unit, no commentary.

Here is how some sequences turned out for z-score.
GCCACAGAAAGUGAUUGAGTT against Rbp7
-0.418
GCGGAAGUCGACCUUUGAUTT against Cd164
-0.238
GGAUGUUCAACCUAAACGATT against Ferd3l
-0.347
CCAAGAGCUGAAACAAGAATT against Ankrd12
-2.01
GGUAGACUGAACUUCAGCATT against Larp6
-1.31
GGCUUACAGUUCCAUAUGGTT against Olfr401
-1.11
GGAAAAAACGCACCAGCAUTT against Pou2f1
0.0271
GGAAAUAUCUCUGGUAAUATT against Reln
-2.17
GGAAAAGCUGGAGGAAGACTT against Tef
0.525
GCUUAUUUCGCCUAUGUGGTT against Slc24a2
-1.11

Next sequence, z-score to be filled in.
// GCCCUGAAGCCUAUAAUCATT against Nhlrc1 : z-score value = 2.34
